self-cleavage reference
B1: HDV Ribozyme (parent)
chain: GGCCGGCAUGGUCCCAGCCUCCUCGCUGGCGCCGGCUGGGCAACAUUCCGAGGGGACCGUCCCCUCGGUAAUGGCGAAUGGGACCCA

Variants of: B1
Protocol summary: self-cleavage, relative activity (ratio to wild type); higher = more cleavage; co-transcriptional
Answer field: number only, no words.

Sequence record	Endpoint result
GGCCGGCAUGGUCCCAGCCUCCUCGCUGGCGCCGGCUGGGCAAGAUUCCGAGGGGACCGUCCCCUCGGUAAUGGCGAAUGGGACCCG [C44G A87G]	0.641
GGCCGGCAUGGUCCCAGCCUCUUCGCUGGCGCCGGCUGGGCAACAUUCCUAGGGGACCGUCCCCUCGGUAAUGGCGAAUGGGACCCA [C22U G50U]	0.521
GGCCGGCAUGGUCCCAUCCUCCUCGCUGGCGCCGGCUGGGCAACAUUCCGAGGGGACCGGCCCCUCGGUAAUGGCGAAUGGGACCCA [G17U U60G]	0.522
GGCCGGCAUGGUCCCAGCCUCCACGCUGGCGCCGGCUGGGCAACAUUCCGAGAGGACCGUCCCCUCGGUAAUGGCGAAUGGGACCCA [U23A G53A]	0.95
GGCCGGCAUGGUCCCAGCCUCCUCGCUGGCGCCGGCUGGGCAACAGUCCGAGGGGCCCGUCCCCUCGGUAAUGGCGAAUGGGACCCA [U46G A56C]	0.959
GGCCGGCAUGGUCCCAGCCUCCUGGCUGGCGCCGGCUGGGCAACAUUCCGAGGGGACCGUCCCGUCGGUAAUGGCGAAUGGGACCCA [C24G C64G]	0.131
GGCCGGCAUGGUCCCAGCCUCCUCGCUGGCGCCGGCUGGGCAAGAUUCCGAGGGGACCGUCCCCUCGGUAAUGGCGACUGGGACCCA [C44G A78C]	0.193
GGCCGGCAUUGUCCCAGCCUCCUCGCUGGCGCCGGCUGGGCAACAUUCCCAGGGGACCGUCCCCUCGGUAAUGGCGAAUGGGACCCA [G10U G50C]	0.817
GGCCGGCAUGGUCCCAGCCUCCUCGCUGGCGCCGGCUGGGCAACAUUCCGAUGGGACCGCCCCCUCGGUAAUGGCGAAUGGGACCCA [G52U U60C]	0.961
GGCCGGCAUGGUCUCAGCCUCCUCGCUGGCGCCGGCUGGGCAACAUUCCGAGGGGACCGUCCCCUCGGUAAUGGCGCAUGGGACCCA [C14U A77C]	0.249

Looking up GGCCGGCAUGGUCCGAGCCUCCUCGCUGGCGCCGGCUGGGCAACAUUCCGAGGGGACCGCCCCCUCGGUAAUGGCGAAUGGGACCCA [C15G U60C] , I found its self-cleavage recorded as 0.7

GET /value?item= GGCCGGCAUGGUCCCAGCCUCCUCGCUGGCCCCGGCUGGGCAACAUUCCGAGGGUACCGUCCCCUCGGUAAUGGCGAAUGGGACCCA [G31C G55U] &field=self-cleavage returns 0.338

get_value(item= GGCCGGCAUGGUCCCAGCCUCCUCGCUGGCGCCGGCUGGGCAACAUGCCGAGGGAACCGUCCCCUCGGUAAUGGCGAAUGGGACCCA [U47G G55A] , readout=self-cleavage) returns 0.939

Sample GGCCGGCAUGGUCCCAGCCUCCUCGCUGGCGCCGGCUGGGCAACAUUCCGAGGGGACCGUCCCCUCGGUAUUGGCGAAUGGGCCCCA [A71U A83C] ; self-cleavage observed: 0.391

Lab book: self-cleavage of GGCAGGCAUGGUCCGAGCCUCCUCGCUGGCGCCGGCUGGGCAACAUUCCGAGGGGACCGUCCCCUCGGUAAUGGCGAAUGGGACCCA [C4A C15G] noted as 0.166

Lookup result for GGCCGGCAUGGUCCCAGCCUCCUCGCGGGCGCAGGCUGGGCAACAUUCCGAGGGGACCGUCCCCUCGGUAAUGGCGAAUGGGACCCA [U27G C33A] ; measured self-cleavage: 0.185
